The measured values listed here are drawn from patent US10125098B2.

# system-under-test: hNav1.7 (Homo sapiens)
# Sequence (Q15858 1-1977 isoform Q15858-3): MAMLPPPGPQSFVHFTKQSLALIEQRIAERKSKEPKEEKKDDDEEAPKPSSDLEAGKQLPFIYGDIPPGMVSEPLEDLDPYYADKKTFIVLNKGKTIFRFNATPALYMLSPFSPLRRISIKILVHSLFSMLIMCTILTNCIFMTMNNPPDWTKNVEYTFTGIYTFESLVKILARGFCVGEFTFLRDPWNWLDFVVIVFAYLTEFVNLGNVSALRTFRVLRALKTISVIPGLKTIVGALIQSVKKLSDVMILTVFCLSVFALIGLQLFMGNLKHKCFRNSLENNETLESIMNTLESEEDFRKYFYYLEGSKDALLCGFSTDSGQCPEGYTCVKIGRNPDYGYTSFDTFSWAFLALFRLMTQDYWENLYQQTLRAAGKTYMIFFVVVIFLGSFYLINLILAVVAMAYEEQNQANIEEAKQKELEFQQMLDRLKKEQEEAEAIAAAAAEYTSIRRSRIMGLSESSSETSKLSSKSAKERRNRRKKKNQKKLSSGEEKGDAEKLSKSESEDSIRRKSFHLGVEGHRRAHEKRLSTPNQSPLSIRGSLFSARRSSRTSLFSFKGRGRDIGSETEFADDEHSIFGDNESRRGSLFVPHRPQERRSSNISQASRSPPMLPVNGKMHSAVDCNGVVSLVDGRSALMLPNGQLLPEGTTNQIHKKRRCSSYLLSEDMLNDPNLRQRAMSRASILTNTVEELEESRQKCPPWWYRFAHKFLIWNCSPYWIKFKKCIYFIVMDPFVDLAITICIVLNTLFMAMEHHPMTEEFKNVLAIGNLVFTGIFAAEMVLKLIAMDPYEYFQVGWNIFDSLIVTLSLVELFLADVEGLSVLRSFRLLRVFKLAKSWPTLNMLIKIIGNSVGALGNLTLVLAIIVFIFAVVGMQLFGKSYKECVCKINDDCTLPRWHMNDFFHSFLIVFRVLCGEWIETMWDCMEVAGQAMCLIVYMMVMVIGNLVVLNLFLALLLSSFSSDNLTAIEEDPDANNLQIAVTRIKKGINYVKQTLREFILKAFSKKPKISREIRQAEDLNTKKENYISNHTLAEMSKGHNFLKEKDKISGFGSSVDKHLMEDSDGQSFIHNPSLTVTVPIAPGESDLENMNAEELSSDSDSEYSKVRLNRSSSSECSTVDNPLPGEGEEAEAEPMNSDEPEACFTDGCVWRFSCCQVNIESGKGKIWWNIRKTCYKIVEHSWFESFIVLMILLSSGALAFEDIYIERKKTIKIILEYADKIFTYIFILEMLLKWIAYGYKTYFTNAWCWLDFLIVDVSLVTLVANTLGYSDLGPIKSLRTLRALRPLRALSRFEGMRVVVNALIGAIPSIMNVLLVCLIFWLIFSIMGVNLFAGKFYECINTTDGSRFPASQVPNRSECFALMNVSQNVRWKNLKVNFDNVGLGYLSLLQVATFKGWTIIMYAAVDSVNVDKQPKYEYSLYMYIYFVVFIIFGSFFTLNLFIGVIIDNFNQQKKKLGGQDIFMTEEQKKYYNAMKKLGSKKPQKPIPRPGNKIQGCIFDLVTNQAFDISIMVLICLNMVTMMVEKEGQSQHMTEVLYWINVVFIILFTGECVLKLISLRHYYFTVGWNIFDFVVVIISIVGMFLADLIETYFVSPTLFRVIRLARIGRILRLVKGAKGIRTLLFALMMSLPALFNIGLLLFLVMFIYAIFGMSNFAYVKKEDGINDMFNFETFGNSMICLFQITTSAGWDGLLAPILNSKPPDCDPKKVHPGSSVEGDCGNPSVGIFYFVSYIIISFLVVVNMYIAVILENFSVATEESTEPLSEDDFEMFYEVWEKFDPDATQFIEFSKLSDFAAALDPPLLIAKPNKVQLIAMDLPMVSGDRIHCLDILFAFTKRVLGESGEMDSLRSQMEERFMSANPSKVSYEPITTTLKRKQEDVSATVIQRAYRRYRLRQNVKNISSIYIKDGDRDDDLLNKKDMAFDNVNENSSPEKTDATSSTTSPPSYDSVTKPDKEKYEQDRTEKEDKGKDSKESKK
# Sequence (Q07699 19-218 partner): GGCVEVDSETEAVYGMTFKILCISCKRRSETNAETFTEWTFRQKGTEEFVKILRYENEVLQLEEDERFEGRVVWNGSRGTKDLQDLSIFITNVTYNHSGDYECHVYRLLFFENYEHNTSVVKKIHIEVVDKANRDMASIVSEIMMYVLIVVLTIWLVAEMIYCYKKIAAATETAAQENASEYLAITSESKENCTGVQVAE
# procedure-text: Tritiated compound binding (LBA) to membranes from cells expressing hNav1.7 and the β1 subunit, competitive binding
# condition-label: competitive binding vs 100 pM [3H]compound, 18 h, room temperature, membranes with hNav1.7 and β1 subunit
Where a name gives a salt, the structure may show the parent alone.
Class (required): determined from IC50; valid ranges are zone 1 (below 20 nM), zone 2 (20 nM to below 400 nM), zone 3 (400 nM or more)

O=C(O)[C@@H]1C[C@@H](F)CN1C(=O)c1cc(C2CC2)c(OCC2CCN(Cc3cc(C(F)(F)F)cc(Cl)c3F)CC2)cc1F [Example 101]; zone 2
CC(C)(NC(=O)c1cc(C2CC2)c(OCC23CC4CC(CC(C4)C2)C3)cc1F)C(=O)O [Example 8]; zone 3
C[C@H]1OCN(C(=O)c2cc(C3CC3)c(OCC3CCN([C@@H](c4cc(Cl)cc(Cl)c4)C(F)(F)F)CC3)cc2F)[C@@H]1C(=O)O (single isomer, unassigned) [Example 138b]; zone 1
O=C(O)[C@@H]1CCCN1C(=O)c1cc(C2CC2)c(OCC2CCN([C@H](c3cc(Cl)cc(Cl)c3)C(F)(F)F)CC2)cc1F (single isomer, unassigned) [Example 123a]; zone 2
C[C@@H](c1cc(Cl)cc(Cl)c1)N1CCC(C)(COc2cc(F)c(C(=O)N3C[C@H](F)C[C@H]3C(=O)O)cc2C2CC2)CC1 (single isomer, unassigned) [Example 132a]; zone 2

Band for the recorded IC50 of O=C(NC1(C(=O)O)CC1)c1cc(C2CC2)c(OCC23CC4CC(CC(C4)C2)C3)cc1F [Example 6] ? zone 3

Hi there! Could you help me figure out the category for CC1(COc2cc(F)c(C(=O)N3CCC[C@H]3C(=O)O)cc2C2CC2)CN(C(c2ccccc2)c2cc(Cl)cc(Cl)c2)C1 (stereo partly shown) [Example 196, trifluoroacetate] please? zone 1
